Test system: Rattus norvegicus
ASSAY EXPLANATION: Cardiovascular activity in anesthetized Sprague-Dawley rat assessed as reduction in heart rate at 200 ug/kg, iv
Assay type: functional
Set-up: scale not given: the % may be the effect or the level left
ASSAY READOUT: Activity (%)
Use % as the unit, but write only the number.

What Activity appears in the records for this molecule with Rattus norvegicus? CCN1C[C@]2(OC(=O)c3ccccc3N)CC[C@H](OC)[C@]34C1[C@H](C[C@H]23)[C@@]1(O)C[C@H](OC)[C@H]2C[C@@H]4[C@]1(O)[C@H]2OC
12.7

What Activity appears in the records for this molecule with Rattus norvegicus? CCN1C[C@@]2(COC)[C@H]3[C@@H](OC)[C@H]4C1[C@]3([C@@H](OC)C[C@H]2OC(C)=O)[C@@H]1C[C@]2(OC(C)=O)[C@@H](OC)C[C@@]4(OC(C)=O)[C@H]1[C@H]2OC(=O)c1ccc(OC)c(OC)c1
5.4

What Activity appears in the records for this molecule with Rattus norvegicus? CCN1C[C@]2(OC(=O)c3ccccc3N)CC[C@H](OC)[C@]34C1[C@H](C[C@H]23)[C@@]1(OC(C)=O)C[C@H](OC)[C@H]2C[C@@H]4[C@]1(OC(C)=O)[C@H]2OC
0

What Activity appears in the records for this molecule with Rattus norvegicus? CCN1C[C@]2(COC)CC[C@H](OC)[C@]34C1[C@H]([C@H](OC)[C@H]23)[C@@]1(OC(=O)c2cccc3cc5ccccc5cc23)C=C[C@@]2(O)C[C@@H]4[C@@H]1[C@H]2OC(=O)c1ccccc1
3.7

What Activity appears in the records for this molecule with Rattus norvegicus? CCN1C[C@]2(COC)CC[C@H](OC)[C@]34C1[C@H]([C@H](OC)[C@H]23)[C@@]1(OC(=O)/C=C/c2ccc(O)c(OC)c2)C[C@H](OC)[C@@]2(O)C[C@@H]4[C@@H]1[C@H]2OC(=O)c1ccccc1
8.3

What Activity appears in the records for this molecule with Rattus norvegicus? CC[N+]1([O-])C[C@]2(C)CC[C@H](OC)[C@]34C1[C@H]([C@@H](O)[C@H]23)[C@@]1(O)CC[C@H]2C[C@@H]4[C@@H]1C(=O)O2 (some centres undefined)
18.8

What Activity appears in the records for this molecule with Rattus norvegicus? CCCCCCCCCCCCCCCCCC(=O)O[C@]12C[C@H](OC)[C@H]3C[C@H]([C@@H]1[C@H]3OC(=O)c1ccc(OC)c(OC)c1)[C@@]13C4[C@@H]2[C@H](OC)[C@@H]1[C@](COC)(CN4CC)[C@H](O)C[C@@H]3OC
0

What Activity appears in the records for this molecule with Rattus norvegicus? CCN1C[C@]2(COC)CC[C@H](OC)[C@]34C1[C@H]([C@H](OC)[C@H]23)[C@@]1(OC(=O)c2ccc(N)cc2)C[C@H](OC)[C@@]2(O)C[C@@H]4[C@@H]1[C@H]2OC(=O)c1ccccc1
8.4

What Activity appears in the records for this molecule with Rattus norvegicus? CCN1C[C@]2(COC)CC[C@H](OC)[C@]34C1[C@H]([C@H](OC)[C@H]23)[C@@]1(OC(=O)c2cccc3cc5ccccc5cc23)C[C@H](OC)[C@@]2(O)C[C@@H]4[C@@H]1[C@H]2OC(=O)c1ccccc1
4.2

What Activity appears in the records for this molecule with Rattus norvegicus? CCN1C[C@]2(COC)CC[C@H](OC)[C@@]34C1[C@@H](C1=C[C@H](OC)[C@@]5(O)C[C@@H]3[C@@H]1[C@H]5OC(=O)c1ccccc1)[C@H](OC)[C@H]24
7.7

What Activity appears in the records for this molecule with Rattus norvegicus? CCN1C[C@]2(COC)CC[C@H](OC)[C@]34C1[C@H](C[C@H]23)[C@H]1C[C@@H](OC)[C@@]2(O)C[C@@H]4[C@@H]1[C@H]2OC(=O)c1ccccc1
0

What Activity appears in the records for this molecule with Rattus norvegicus? CCN1C[C@]2(OC(=O)c3ccccc3NC(C)=O)CC[C@H](OC)[C@]34C1[C@H](C[C@H]23)[C@@]12C[C@H](OC)[C@H]3C[C@@H]4[C@]1(OCO2)[C@H]3OC
5.7

What Activity appears in the records for this molecule with Rattus norvegicus? CC[N+]1([O-])C[C@]2(COC)CC[C@H](OC)[C@]34C1[C@H]([C@H](OC)[C@H]23)[C@@]1(OC(C)=O)C[C@H](OC)[C@@]2(OC(C)=O)C[C@@H]4[C@@H]1[C@H]2OC(=O)c1ccccc1 (some centres undefined)
3.8

What Activity appears in the records for this molecule with Rattus norvegicus? CC/C=C\C/C=C\C/C=C\CCCCCCCCC(=O)O[C@]12C[C@H](OC)[C@H]3C[C@H]([C@@H]1[C@H]3OC(=O)c1ccc(OC)c(OC)c1)[C@@]13C4[C@@H]2[C@H](OC)[C@@H]1[C@](COC)(CN4CC)[C@H](O)C[C@@H]3OC
8.5
